target: human Siglec-7 on primary human monocyte-derived dendritic cells (human, UniProt Q9Y286 19-467); assay: cell-based or functional assay
Sequence (Q9Y286 19-467): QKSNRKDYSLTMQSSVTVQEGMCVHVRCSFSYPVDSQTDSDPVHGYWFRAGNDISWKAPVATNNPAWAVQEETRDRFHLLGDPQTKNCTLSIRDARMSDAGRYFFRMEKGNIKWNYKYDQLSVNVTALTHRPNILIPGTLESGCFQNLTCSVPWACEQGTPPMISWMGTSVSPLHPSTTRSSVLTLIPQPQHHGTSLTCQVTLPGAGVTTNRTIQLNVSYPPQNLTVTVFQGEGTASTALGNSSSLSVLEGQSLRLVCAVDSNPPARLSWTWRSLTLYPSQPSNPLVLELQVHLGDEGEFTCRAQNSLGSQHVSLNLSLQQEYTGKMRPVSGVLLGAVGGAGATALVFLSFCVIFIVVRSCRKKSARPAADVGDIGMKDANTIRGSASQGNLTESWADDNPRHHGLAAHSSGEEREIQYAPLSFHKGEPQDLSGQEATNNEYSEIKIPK
experimental readout: Fold increase in potency compared to Chimeric Ab (fold)
# unit: fold | format: bare number

Study these solved cases before continuing.
binder="S7AB-H8.22 (antibody, V domains shown) VH: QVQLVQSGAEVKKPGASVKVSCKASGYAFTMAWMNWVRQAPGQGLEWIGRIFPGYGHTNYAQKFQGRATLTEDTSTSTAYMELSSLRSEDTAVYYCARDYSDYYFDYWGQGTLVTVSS VL: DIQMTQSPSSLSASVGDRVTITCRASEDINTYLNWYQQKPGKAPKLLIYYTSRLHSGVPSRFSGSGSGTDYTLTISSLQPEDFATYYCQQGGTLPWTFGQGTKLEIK" value_measured=9.4
binder="S7AB-H8.12 (antibody, V domains shown) VH: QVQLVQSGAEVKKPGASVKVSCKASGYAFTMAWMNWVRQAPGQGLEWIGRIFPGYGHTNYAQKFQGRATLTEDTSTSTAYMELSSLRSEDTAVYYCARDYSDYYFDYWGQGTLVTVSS VL: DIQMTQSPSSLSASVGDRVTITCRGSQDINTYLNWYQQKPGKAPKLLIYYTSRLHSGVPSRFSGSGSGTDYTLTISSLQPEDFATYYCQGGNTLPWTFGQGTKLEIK" value_measured=0.04

Attention now shifts to the item below.
q: Given the binder S7AB-H8.28 (antibody, V domains shown) VH: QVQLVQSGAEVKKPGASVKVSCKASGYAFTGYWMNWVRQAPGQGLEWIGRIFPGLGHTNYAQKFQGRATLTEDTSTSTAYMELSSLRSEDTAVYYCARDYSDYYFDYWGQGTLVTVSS VL: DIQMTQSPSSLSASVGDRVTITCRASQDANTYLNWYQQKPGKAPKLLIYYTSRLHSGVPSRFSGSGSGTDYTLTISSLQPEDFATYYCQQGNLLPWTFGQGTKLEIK , what is its reported Fold increase in potency compared to Chimeric Ab?
a: 13.7
